Known pIC50 of a selection of molecules
- System: PC-3
- procedure.details: Cytotoxicity against human PC3 cells after 48 hrs by MTT assay
- Assay type: functional, cell-based
- stated.conditions: PC-3, 48 h
pIC50 here: minus log base 10 of the concentration, concentration in moles per litre.

Worked cases, answers included:
>>> recorded_value("[O-][n+]1nc(Nc2ccccc2)[n+]([O-])c2ccccc21")
4.77
>>> recorded_value("CCCCCCCCNc1n[n+]([O-])c2ccccc2[n+]1[O-]")
4.74
>>> recorded_value("CCNc1n[n+]([O-])c2ccccc2[n+]1[O-]")
4.88
>>> recorded_value("[O-][n+]1nc(NCCO)[n+]([O-])c2ccccc21")
4.65
>>> recorded_value("Cc1ccc(Nc2n[n+]([O-])c3ccccc3[n+]2[O-])cc1")
4.99

pIC50 reading for "[O-][n+]1nc(NC2CCCCC2)[n+]([O-])c2ccccc21" : 4.98

So for "[O-][n+]1nc(NCc2ccccc2)[n+]([O-])c2ccccc21" , the logged pIC50 turned out to be 4.97

The reported value for "O=[N+]([O-])c1ccc(CNc2n[n+]([O-])c3ccccc3[n+]2[O-])cc1" in terms of pIC50 is 5.13

pIC50 reported for this molecule "[O-][n+]1nc(NC2CC2)[n+]([O-])c2ccccc21" : 4.80

Value of pIC50 reported for the molecule "Nc1n[n+]([O-])c2ccccc2[n+]1[O-]" is 4.65

Given item "[O-][n+]1nc(NCc2ccccc2Cl)[n+]([O-])c2ccccc21" , the value recorded as its pIC50 is 4.97

So for "Nc1ccccc1Nc1n[n+]([O-])c2ccccc2[n+]1[O-]" , the logged pIC50 turned out to be 4.79

The reported pIC50 of the molecule "COc1ccc(Nc2n[n+]([O-])c3ccccc3[n+]2[O-])cc1" was 4.92

* * *

- System: MOLT-4
- procedure.details: Cytotoxicity against human Molt4 cells after 48 hrs by MTT assay
- Format: functional, cell-based
- stated.conditions: MOLT-4, 48 h
outcome.measure: IC50 (µM)
The answer is to be given in µM; state only the numeric part.

>>> recorded_value("[O-][n+]1nc(NC2CC2)[n+]([O-])c2ccccc21")
1.9

Measured IC50 for this entry "CCNc1n[n+]([O-])c2ccccc2[n+]1[O-]" on MOLT-4: 3.3

Measured IC50 for this entry "Cc1ccc(Nc2n[n+]([O-])c3ccccc3[n+]2[O-])cc1" on MOLT-4: 1.1

* * *

- Tested on: PC-3
- procedure.details: Cytotoxicity against human PC3 cells after 48 hrs by MTT assay
- Format: functional, cell-based
- stated.conditions: PC-3, 48 h
Reported IC50 values for a set of molecules

Look over these answered cases.
>>> recorded_value("[O-][n+]1nc(N2CCOCC2)[n+]([O-])c2ccccc21")
"> 95 µM"
>>> recorded_value("CCN(CC)c1n[n+]([O-])c2ccccc2[n+]1[O-]")
"> 107 µM"

// next item, IC50 requested
Measured IC50 of "C=CCNc1n[n+]([O-])c2ccccc2[n+]1[O-]" : > 56 µM
